Kindly state Solubility for each of the entries shown.
# test: Solubility in PBS
# Format: physicochemical
# condition.details: Solubility (uM)
# Procedure: After ultracentrifugation of the PBS solution, the supernatant was analyzed by HPLC and compared to an HPLC injection 50 μM peptide DMSO solution. Solubility was determined by: [(Area of PBS peak)/(Area of DMSO peak)]*50 uM.

Input: Tell me the measured Solubility of CC(=O)N1CCC[C@]12CC=CCCCC1(CCCC=CCCCCCC[C@@](C)(C(=O)N[C@@H](Cc3ccccc3)C(=O)N[C@@H](Cc3csc4ccccc34)C(=O)N[C@@H](Cc3c[nH]cn3)C(N)=O)NC(=O)[C@H](CC(N)=O)NC(=O)[C@H](Cc3ccccc3)NC(=O)[C@H](C)NC(=O)[C@H](C)NC(=O)[C@H](CCC(=O)O)NC(=O)[C@H](CC(=O)O)NC1=O)NC(=O)[C@H](CC(C)C)NC(=O)[C@H](CC(=O)O)NC2=O (stereo partly drawn) , please.
Output: 28 µM

Input: What do we get for CC(=O)N1CCC[C@]12CC=CCCCC1(CCCC=CCCCOC(=O)N3CC[C@@](C(=O)N[C@@H](Cc4ccccc4Cl)C(=O)N[C@@H](Cc4csc5ccccc45)C(=O)N[C@@H](C)CO)(C3)NC(=O)[C@H](CC(N)=O)NC(=O)[C@H](Cc3ccccc3)NC(=O)[C@H](C)NC(=O)[C@H](C)NC(=O)[C@H](CC(=O)O)NC(=O)[C@H](CC(=O)O)NC1=O)NC(=O)[C@H](CC(C)(C)C)NC(=O)[C@H](CC(=O)O)NC2=O (stereo partly drawn) ?
Output: 43 µM

Input: Queued: CC(=O)N1CCC[C@]12CC=CCCCC1(CCCC=CCCCOC(=O)N3CC[C@@](C(=O)N[C@@H](Cc4ccsc4)C(=O)N[C@@H](Cc4csc5ccccc45)C(=O)N[C@@H](CCC(N)=O)C(N)=O)(C3)NC(=O)[C@H](CC(N)=O)NC(=O)[C@H](Cc3ccccc3)NC(=O)[C@H](CCCCNC(=O)c3ccc(CN(C)C)cc3)NC(=O)[C@H](C)NC(=O)[C@H](CC(=O)O)NC(=O)[C@H](CC(=O)O)NC1=O)NC(=O)[C@H](CC(C)(C)C)NC(=O)[C@H](CC(=O)O)NC2=O (stereo partly drawn)
Output: 42 µM

The reported measurements were obtained from patent US20240116985A1.
